Biological target: Beta-lactamase (Acinetobacter baumannii)
Sequence (Q8RLA6 whole entry): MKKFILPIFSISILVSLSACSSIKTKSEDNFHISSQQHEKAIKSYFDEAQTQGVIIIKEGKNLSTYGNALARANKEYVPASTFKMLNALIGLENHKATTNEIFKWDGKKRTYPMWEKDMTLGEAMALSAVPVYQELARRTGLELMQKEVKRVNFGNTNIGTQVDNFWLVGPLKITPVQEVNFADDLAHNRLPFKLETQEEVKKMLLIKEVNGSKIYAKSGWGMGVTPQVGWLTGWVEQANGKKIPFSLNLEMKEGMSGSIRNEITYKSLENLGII
Assay: Inhibition of Acinetobacter baumannii beta lactamase OXA-40
pIC50 listing for selected compounds.
Lab note — pIC50 values are minus log10 of concentrations in M.

Smiles Notation: N#Cc1ccc(OP(=O)(O)CNC(=O)C(=NO)c2cccs2)cc1F
pIC50: 4.68

Pending compound:
Prompt: Find the recorded pIC50 belonging to `CO/N=C(/C(=O)NCP(=O)(O)Oc1ccc(C#N)c(F)c1)c1cccs1` and report it.
Response: 4.77

---

Target: Beta-lactamase (Acinetobacter baumannii)
Test: Inhibition of Acinetobacter baumannii beta lactamase OXA-40
Measured Property: pIC50
Lab note — pIC50 values are minus log10 of concentrations in M.

# count of solved cases: 2
Molecule: CO/N=C(\C(=O)NCP(=O)(O)Oc1ccc(C#N)c(F)c1)c1cccs1
pIC50: 4.59
//
Molecule: CO/N=C(/C(=O)NCP(=O)(O)Oc1ccc(C#N)c(F)c1)c1ccc(Cl)s1
pIC50: 4.51

Prompt: Find the recorded pIC50 belonging to N#Cc1ccc(OP(=O)([O-])CNC(=O)/C(=N\OCCC[n+]2ccccc2)c2cccs2)cc1F (stereo in doubt; 6a) and report it.
Response: 4.57
